Assay: Rat PK study #1 (Compound A PO, methylcellulose vs propylene glycol formulation)
Type: in vivo, Lewis rats
Details: male, Lewis, rat, plasma, po, 10 mg/kg, Lewis rats, PO 10 mg/kg, propylene glycol/Vitamin E TPGS/water formulation, 1 h, individual animals
Experimental: For the first rat pharmacokinetic study, the pharmacokinetics of Compound A were assessed in male Lewis rats. […] The Compound A solutions were administered to animals orally (PO) and animals were then monitored over a 24 h period. […] The concentration of Compound A in plasma samples was determined by liquid chromatography-mass spectrometry (LC-MS/MS) using a Shimadzu HPLC (DGU-20A5R; LC-30AD; SIL-30AC; Rack changer II; CTO-31A; and CBM-20A) and an AB API 5500 LC/MS/MS instrument. […]
measuredParameter: concentration at 1 h
Reply with the number and its unit after it.

What value of concentration at 1 h has been reported for the following compound? Cn1cc(-c2ccccc2)c(-c2cn(C)c(=O)c3[nH]c(-c4cnn(C(F)(F)F)c4)cc23)cc1=O [Compound A]
277 ng/mL

----------
test: Dog PK study #1 (Compound A IV and PO, propylene glycol formulation); type: in vivo, beagle dogs; details: beagle, dog, plasma, iv, 1 mg/kg, IV 1 mg/kg; mean; read-out: C0
measuredParameter: C0 (ng/mL)
Respond numerically; units are ng/mL and should not be typed.

Query (molecule): "Cn1cc(-c2ccccc2)c(-c2cn(C)c(=O)c3[nH]c(-c4cnn(C(F)(F)F)c4)cc23)cc1=O" ; field requested: C0
1690

----------
experiment: Dog PK study #3 (Compound A PO once daily 5 days, 5/10/20 mg/kg; PK, body weight, hematology); format: in vivo, beagle dogs; settings: male, beagle, dog, plasma, po, 10 mg/kg, Day 1, 10 mg/kg dose PO; mean; read-out: T½ (converted)
measuredParameter: half-life (h)
Hi! Could you send only the number? It should be in h, unit omitted.

Would you mind telling me what half-life value was observed for "Cn1cc(-c2ccccc2)c(-c2cn(C)c(=O)c3[nH]c(-c4cnn(C(F)(F)F)c4)cc23)cc1=O" ?
5.6

----------
experiment: Rat PK study #4 (Compound A PO 0.2 and 1.0 mg/kg, propylene glycol formulation); type: in vivo, Lewis rats; details: male, Lewis, rat, plasma, po, 0.2 mg/kg, Lewis rats, PO 0.2 mg/kg, propylene glycol-based formulation, 0.5 h, individual animals
measuredParameter: concentration at 0.5 h
The reply should consist of the numeric value with the unit placed after it.

Find the recorded concentration at 0.5 h belonging to Cn1cc(-c2ccccc2)c(-c2cn(C)c(=O)c3[nH]c(-c4cnn(C(F)(F)F)c4)cc23)cc1=O [Compound A] and report it.
2.31 ng/mL

----------
IC50: recorded values
target: BRD4 BD2 (Homo sapiens, UniProt O60885); construct: HEK293 cells were transfected using NanoLuc-BRD4-BD1 or NanoLuc-BRD4-BD2 fusion vectors; assay: NanoBRET bromodomain assay, NanoLuc-BRD4-BD2 in HEK293 cells

>>> result("Cc1cc(-c2cc3c(-c4cc(=O)n(C)cc4-c4ccc(C#N)cc4)cn(C)c(=O)c3[nH]2)cc(C)n1.Cl")
"0.01 to 0.05 µM"
>>> result("CC(C)n1cc(-c2cc3c(-c4cc(=O)n(C)cc4-c4cccc(CS(C)(=O)=O)c4)cn(C)c(=O)c3[nH]2)cn1")
"0.2 to 1 µM"
>>> result("Cc1cccc(C)c1Oc1cn(C)c(=O)cc1-c1cn(C)c(=O)c2[nH]c(-c3cnn(CCF)c3)cc12")
"< 0.01 µM"
>>> result("Cc1cccc(C)c1Oc1cn(C)c(=O)cc1-c1cn(C)c(=O)c2[nH]c(-c3cn(CC(F)(F)F)nc3C)cc12")
"0.01 to 0.05 µM"

Please report the recorded IC50 for "Cc1cccc(C)c1Oc1cn(C)c(=O)cc1-c1cn(C)c(=O)c2[nH]c(-c3cccc(C(F)F)c3F)cc12" .
0.05 to 0.2 µM

Given the molecule "Cn1cc(-c2cccc(OCCO)c2)c(-c2cn(C)c(=O)c3[nH]c(-c4ccc(F)cc4F)cc23)cc1=O" , what is its reported IC50?
0.01 to 0.05 µM

// query IC50 value for entry "Cn1cc(-c2cc(=O)n(C3CC3)cc2-c2ccccc2)c2cc(-c3ccccc3F)[nH]c2c1=O"
< 0.01 µM

May I ask what IC50 has been recorded for "Cc1cccc(-c2cc3c(-c4cc(=O)n(C)cc4Oc4c(C)cccc4C)cn(C)c(=O)c3[nH]2)c1F" ?
0.01 to 0.05 µM

# IC50 lookup, item "COc1cccc(-c2cc3c(-c4cc(=O)n(C5CC5)cc4-c4ccccc4)cn(C)c(=O)c3[nH]2)c1F"
< 0.01 µM

The measurements presented in this section are drawn from patent US20260217701A1.
